Experiment: Pharmacokinetic evaluation in mice
Format: in vivo, C57BL/6 or C57 mice
Conditions: male, C57BL/6, mouse, plasma, intravenous injection 2 mg/kg, fasted, read-out: Apparent Volume of Distribution
Counter-ions that a name gives are not always drawn.

[
  {
    "compound": "O=C1CCC(c2noc3ccc4c(NC(=O)CN5CCN(C[C@H]6CC[C@H](n7cc(NC(=O)c8coc(-c9ccnc(NCC%10CC%10)c9)n8)c(C(F)F)n7)CC6)CC5)cccc4c23)C(=O)N1 (stereo partly shown) [Hydrochloride of Compound of Formula (I)]",
    "Vd": "1.6 L/kg"
  }
]

====

Experiment: Pharmacokinetic evaluation in beagle dogs
Format: in vivo
Conditions: male, dog, plasma, intravenous injection 0.5 mg/kg, fed, read-out: Elimination Half-Life (converted)
Structures can show the parent of a compound that is named as a salt.

[
  {
    "molecule": "O=C1CCC(c2noc3ccc4c(NC(=O)CN5CCN(C[C@H]6CC[C@H](n7cc(NC(=O)c8coc(-c9ccnc(NCC%10CC%10)c9)n8)c(C(F)F)n7)CC6)CC5)cccc4c23)C(=O)N1 (stereo partly shown) [Hydrochloride of Compound of Formula (I)]",
    "half-life (h)": 5.03
  }
]
